Test system: A498 renal
Test: NCI-60 one-dose screen, 48 h
Details: 10 µM unless noted
About 83,000 compounds went through this panel and 20% of them were active in at least one assay; those are over-represented in the sample as a whole. Activity calls are given as the source filed them. How the source made its calls: active means growth percent below 10; inactive means the rest.
Respond with a class label; see active, inactive

**Query** Per the records of this test, what outcome belongs to CCOc1cccc(/C=N/NC(=O)Cc2ccc(Nc3ccnc(C(F)(F)F)c3)cc2)c1O ?
**Result** inactive

**Query** Per the records of this test, what outcome belongs to COc1ccc(Nc2ncnc3c2sc2nc(C)cc(C)c23)cc1 ?
**Result** inactive

**Query** Per the records of this test, what outcome belongs to CN(C)c1ccc(/C=N/Nc2nnc3n2N=C(c2ccc(Cl)cc2)CS3)cc1 ?
**Result** inactive

**Query** Per the records of this test, what outcome belongs to N=C(N)c1ccc(-c2ccc(-c3cc(Cl)cc(Cl)c3)o2)nc1 ?
**Result** inactive

**Query** Per the records of this test, what outcome belongs to Nc1nc(N)c2cc(CNc3ccc(Cl)c(Cl)c3)ccc2n1 ?
**Result** inactive

**Query** Per the records of this test, what outcome belongs to Cc1cc(C)c([O-])c(CN(C)CCN(C)Cc2cc(C)cc(C)c2[O-])c1.O=C([O-])c1cccc(C(=O)[O-])n1.[Ti+4] ?
**Result** active

**Query** Per the records of this test, what outcome belongs to COc1ccc(C2CC(c3ccc(Nc4ccnc5cc(Cl)ccc45)cc3)=NN2c2ccccc2)cc1 (configuration not stated) ?
**Result** inactive

**Query** Per the records of this test, what outcome belongs to CC(=O)N[C@@H](CCC(N)=O)C(=O)O ?
**Result** inactive

**Query** Per the records of this test, what outcome belongs to Oc1[nH]c2ccccc2c1/C=c1/ccc2c(c1)N=C(c1ccc(C(F)(F)F)cc1)N=2 ?
**Result** inactive

**Query** Per the records of this test, what outcome belongs to COc1ccc2[nH]c(C(=O)OCc3ccc4c(Br)cc(Br)c(O)c4n3)cc2c1 ?
**Result** active

**Query** Per the records of this test, what outcome belongs to Cc1ccc(N2C3c4ccccc4N(S(=O)(=O)c4ccc(C)cc4)C2c2ccccc2N3S(=O)(=O)c2ccc(C)cc2)cc1 ?
**Result** inactive

**Query** Per the records of this test, what outcome belongs to CCCCCCCCCCCC1=NC(C)(C)CN1C(C)(C)CO ?
**Result** inactive
